System: healthy volunteers
Test: First-in-Human SAD/MAD study (NCT03508635), ECG / QTcF
Format: in vivo
Details: MAD; concentration-QTc linear model; FIG. 2B
MEASURED ENDPOINT: MAD equation ΔΔQTcF slope versus relacorilant concentration (ms/ng/mL)
A number alone suffices; assume ms/ng/mL.

For the molecule `Cn1cc(S(=O)(=O)N2CCC3=Cc4c(cnn4-c4ccc(F)cc4)C[C@]3(C(=O)c3cc(C(F)(F)F)ccn3)C2)cn1` , give its measured MAD equation ΔΔQTcF slope versus relacorilant concentration value.
-0.00234

----------
Assay: Plasma concentrations in TQT study (LC-MS/MS, non-compartmental PK)
Assay type: in vivo, human
Conditions: human, plasma, oral; 800 mg QD, Day 5; read-out: Geometric Mean Cmax
Description: PK analyses were performed using non-compartmental methods to obtain estimates of the following parameters, where possible: […] Day 1: Cmax, Tmax, AUClast, and AUC0-24; Day 5: Cmax, Tmax, Cmin, AUClast, AUC0-tau, Cavg, FI, and AR. For moxifloxacin: Cmax, Tmax, AUClast, and AUC0-24. […] PK blood sampling for Day 1 was completed prior to dosing on Day 2.
MEASURED ENDPOINT: Cmax (ng/mL)
A number alone suffices; assume ng/mL.

For the compound `Cn1cc(S(=O)(=O)N2CCC3=Cc4c(cnn4-c4ccc(F)cc4)C[C@]3(C(=O)c3cc(C(F)(F)F)ccn3)C2)cn1` , give its measured Cmax value.
2710

The measured values listed here are drawn from patent US20240197716A1.
